Molecular target: T1, human LAG-3 expressed on cells (human, UniProt P18627 23-525)
T1 construct: whole, on cells; Treated as one protein; the host cell is named under assay; also called LAG-3-expressing CHO cells; LAG-3-transfected CHO cells
T1 sequence (looked up): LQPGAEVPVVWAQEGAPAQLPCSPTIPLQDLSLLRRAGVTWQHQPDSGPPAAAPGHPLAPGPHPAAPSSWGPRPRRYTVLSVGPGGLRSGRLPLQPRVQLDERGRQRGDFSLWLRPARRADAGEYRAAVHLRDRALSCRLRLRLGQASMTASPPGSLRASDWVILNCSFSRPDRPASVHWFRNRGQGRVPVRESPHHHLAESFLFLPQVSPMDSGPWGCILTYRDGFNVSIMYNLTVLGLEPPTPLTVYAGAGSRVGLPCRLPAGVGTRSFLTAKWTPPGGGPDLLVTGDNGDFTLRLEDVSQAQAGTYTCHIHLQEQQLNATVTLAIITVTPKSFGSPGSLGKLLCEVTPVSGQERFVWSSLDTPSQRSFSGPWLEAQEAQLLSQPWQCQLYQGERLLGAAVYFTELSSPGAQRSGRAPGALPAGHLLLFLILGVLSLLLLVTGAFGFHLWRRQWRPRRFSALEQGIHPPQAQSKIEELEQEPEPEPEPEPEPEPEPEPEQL
Test: rank of the clone among the humanized clones by the FACS binding data on LAG-3-expressing cells
Assay readout: Ranking, Binding data
Give bare numbers.

>  <Binder>
BAP050-hum10 (antibody, human IgG4 S228P, kappa, V domains shown, humanized IgG4(S228P)/kappa, transient CHO supernatant) VH: QVQLVQSGAEVKKPGASVKVSCKASGFTLTNYGMNWVRQARGQRLEWIGWINTDTGEPTYADDFKGRFVFSLDTSVSTAYLQICSLKAEDTAVYYCARNPPYYYGTNNAEAMDYWGQGTTVTVSS VL: EIVLTQSPATLPVTLGQPASISCSSSQDISNYLNWYQQKPGQAPRLLIYYTSTLHLGVPSRFSGSGSGTDFTFTISSLEAEDAATYYCQQYYNLPWTFGQGTKVEIKR

>  <Ranking, Binding data>
9

$$$$
>  <Binder>
BAP050-hum11 (antibody, human IgG4 S228P, kappa, V domains shown, humanized IgG4(S228P)/kappa, transient CHO supernatant; also called humanized clone No. 11) VH: QVQLVQSGAEVKKPGASVKVSCKASGFTLTNYGMNWVRQARGQRLEWIGWINTDTGEPTYADDFKGRFVFSLDTSVSTAYLQICSLKAEDTAVYYCARNPPYYYGTNNAEAMDYWGQGTTVTVSS VL: DIQMTQSPSSLSASVGDRVTITCSSSQDISNYLNWYLQKPGQSPQLLIYYTSTLHLGVPSRFSGSGSGTEFTLTISSLQPDDFATYYCQQYYNLPWTFGQGTKVEIKR

>  <Ranking, Binding data>
2

$$$$
>  <Binder>
BAP050-hum07 (antibody, human IgG4 S228P, kappa, V domains shown, humanized IgG4(S228P)/kappa, transient CHO supernatant) VH: EVQLVQSGAEVKKPGATVKISCKVSGFTLTNYGMNWVRQAPGQGLEWMGWINTDTGEPTYADDFKGRFVFSLDTSVSTAYLQICSLKAEDTAVYYCARNPPYYYGTNNAEAMDYWGQGTTVTVSS VL: DIQMTQSPSSLSASVGDRVTITCSSSQDISNYLNWYLQKPGQSPQLLIYYTSTLHLGVPSRFSGSGSGTEFTLTISSLQPDDFATYYCQQYYNLPWTFGQGTKVEIKR

>  <Ranking, Binding data>
8

$$$$

Next up:
Please look up its Ranking, Binding data: BAP050-hum17 (antibody, human IgG4 S228P, kappa, V domains shown, humanized IgG4(S228P)/kappa, transient CHO supernatant) VH: QVQLVQSGSELKKPGASVKVSCKASGFTLTNYGMNWVRQAPGQGLEWMGWINTDTGEPTYADDFKGRFVFSLDTSVSTAYLQISTLKAEDTATYFCARNPPYYYGTNNAEAMDYWGQGTTVTVSS VL: DIQMTQSPSSLSASVGDRVTITCSSSQDISNYLNWYQQKPGKAPKLLIYYTSTLHLGVPSRFSGSGSGTDFTFTISSLQPEDIATYYCQQYYNLPWTFGQGTKVEIKR
9

Each recorded value in this set is attributed to patent US20180340025A1.
